- protocol_description: soluble on expression in E. coli; label from the status in PepcDB or PDB records
measured_quantity: soluble on expression in E. coli

In the examples that follow, each entry is paired with its recorded soluble on expression in E. coli.
>  <residue_codes>
GSHMVLTKKKLQDLVREVDPNEQLDEDVEEMLLQIADDFIESVVTAACQLARHRKSSTLEVKDVQLHLERQWNMWI

>  <soluble on expression in E. coli>
soluble

$$$$
>  <residue_codes>
MQTFFIAPTDFGVGLTSISLGLVRTLERAGLKVGFFKPIAQPHPGDLGPERSTELMARTHGLKPPKPLGLAHVERMLGDGQLDELLEEIINLYQQAAVGKDVLVVEGMVPTRSASYAARVNLHLAKSLDAEVILVSAPENEVLTELSGRVELQAQLFGGPKDPKVLGVILNKVRTEESMEVFAARLKEHSPLLRNGDFRLLGCIPYRAELNAPRTRDVAELLGAQ

>  <soluble on expression in E. coli>
not soluble

$$$$
>  <residue_codes>
DKREYFVYLPPTYGKGDNHYSVIYMQDGDIVIKILNELMDLIENKSKKDVYDESIIVGVKPIVRNDDYTPWEAEAISKGSSEFGGRGDIYLNFLIKKLKPYIDNKYRTKKEKN

>  <soluble on expression in E. coli>
not soluble

$$$$
>  <residue_codes>
MSLALDHVGIATEDAAGLAERFGAVFETQIAHSETFDGMYIIFLDMNGTYLELLEPVDDSDGPIATFLAQRDAGIHHIAIMTEDIATALENARAVGIECIDETPRQGAWGHQVAFLHPRSTGGVLCEFVQQEGHHHHHH

>  <soluble on expression in E. coli>
soluble

$$$$
>  <residue_codes>
MPNSSILLIFLLTIVILIAPEENHKTYCEVLTSNNSNCTAYCKEKPECSWGRCEGYFKTNCVCYSDKYQFCE

>  <soluble on expression in E. coli>
not soluble

$$$$

Hey, quick one: what's soluble on expression in E. coli for each of these?
1. ANNLPDTQSSGPAHSKETPALTAVETGATNPLVPSDTVQTRHVIQKRTRSESTVESFFARGACVAIIEVDNDAPTKRASKLFSVWKITYKDTVQLRRKLEFFTYSRFDMEFTFVVTSNYTDANNGHALNQVYQIMYIPPGAPIPGKWNDYTWQTSSNPSVFYTYGAPPARISVPYVGIANAYSHFYDGFAKVPLAGQASTEGDSLYGAASLNDFGSLAVRVVNDHNPTKLTSKIRVYMKPKHVRVWCPRPPRAVPYYGPGVDYKDGLAPLPGKGLTTY
2. MRDIMSSPPITTLPMTSVKEAAKIMLENRVGSLIVVNERNTLLGILTKTDIIREVVAKGLDPESVRVGDIMTRNPYYVYTDDSVERAASLMGEHNIGHLPVLDPETEKPVGIVTKTDIVKLAPNYINVIYSLKQEIDRRERLKRIRK
3. MTENLLAERHALRWVFLYEFPQICNCNEARRNMCAVLGKNSVTYNTMKFWFEKFTKKNYDLDDKPR
4. MSLYRIDFNKLRFLICDDNPHMRRILRTLLHSFGTREVYEAEDGATALEMYSHYSPDILITDWEMPIFDGLELAQMIRQPEAKGNPYAPIIMLTAHSEKRRVTLARDAGVTEFLAKPISSKGLYQRILNVVASPREGHHHHHH
5. MEGGMKRVVLAFGTRPEATKMAPVYLALRGIPGLKPLVLLTGQHREQLRQALSLFGIQEDRNLDVMQERQALPDLAARILPQAARALKEMGADYVLVHGDTLTTFAVAWAAFLEGIPVGHVEAGLRSGNLKEPFPEEANRRLTDVLTDLDFAPTPLAKANLLKEGKREEGILVTGQTGVDAVLLAAKLGRLPEGLPEGPYVTVTMHRRENWPLLSDLAQALKRVAEAFPHLTFVYPVHLNPVVREAVFPVLKGVRNFVLLDPLEYGSMAALMRASLLLVTDSGGLQEEGAALGVPVVVLRNVTERPEGLKAGILKLAGTDPEGVYRVVKGLLENPEELSRMRKAKNPYGDGKAGLMVARGVAWRLGLGPRPEDWLP
6. MGHHHHHHSHMLWECKQLGAHSPSTLLTTLMFFNTKYFLLKTVDQHMKLAFSKVLRQTKKNPSNPKDKSTSIRYLKALGIHQTGQKVTDDMYAEQTENPENPLRCPIKLYDFYLFKCPQSVKGRNDTFYLTPEPVVAPNSPIWYSVQPISREQMGQMLTRILVIREIQEAIAVANASTMH
7. GSMTEETHPDDDSYIVRVKAVVMTRDDSSGGWFPQEGGGISRVGVCKVMHPEGNGRSGFLIHGERQKDKLVVLECYVRKDLVYTKANPTFHHWKVDNRKFGLTFQSPADARAFDRGVRKAIEDLIE

1. soluble
2. soluble
3. soluble
4. not soluble
5. soluble
6. not soluble
7. soluble

Hey, quick one: what's soluble on expression in E. coli for each of these?
1. MYIPKHFAVNDPDVAYQVIEENSFATLVSMHQRELFATHLPLLLDREKTCLYGHFARSNPQWNDIQHQTVLAIFHGPHCYISPSWYETNQAVPTWNYVAVHVYGNVELINDQGEVMQSLHDMVEKYEAPGSRYQLSEVDAGMLSGMNKGIQAFKIIIKRIEGKAKLSQNHPAHRQERIIKQLEQMPFENEKRIASLMKKQRQ
2. MSLTGVLGFYTLEEGPTLPSSFTSFANNTGQLSSTALFMFRISAANPTTIEKFGEFTDQDVRNLVAIAHRNNVKIMPVVHNLLYRPGGTTLAKNVVKTLVSDPRNRNAFALNLVNLIERYGFDGVNIDIEDVFIEDSDNLSLLYTEISEVLRPRGYFFSASVPSRVSDEPFNPFSDPFNYSVIGRAVDEFVVMLYNEFGWPGSPPGPAVTIGWMERVLRYTMSKMPRDKIMAAVSVFGFDFNLTTGRNTYVTYQSAINLARRYNSEIIFNEERQTPMFTYRDAQGNQHEVWFEDARSLRSKIQLAWELGIKGVALWRLGMEDPNIWPMLRNEVVVRKFEGHHHHHH
3. MAGCSMMKVDRTFPDLKEIPVDLATRFRQMIEWLEIANSECRLTPYKKISHIYQIFHSQGVLECLFRRGEDDISFMIEASVYLLDHPLDGSRSSSPTICDFAGVLPTIFVTFRNKRLGTMVSGASVEFMEFAHHIQEHIHRTSFPEIRTAEIHKISLIDVRFGNMDRNAKNIIVKVEDNIPHFVPIDHEMCFINTGQNYNLCKPYWLSLEDSSIYEA

soluble
soluble
soluble
